Test system: CP217
Test: qHTS profiling for inhibitors of Plasmodium falciparum proliferation (AID 504749); also: nearly all actives have a fitted effect of over 60% in size
Settings: P. falciparum in erythrocytes, SYBR Green DNA, 72 h; series mostly up to 28.7 µM
Description: NIH National Institute of Allergy and Infectious Diseases [NIAID] NIH Chemical Genomics Center [NCGC] […] Because mature erythrocytes lack DNA, only Plasmodium-derived DNA is detected. NCGC Assay Protocol Summary: The SYBR Green viability assay was adapted from a method described previously (Plouffe et al., 2008). […] The following morning, fluorescence intensity at 485(14) nm excitation and 535(25) nm emission wavelengths was measured on an EnVision (Perkin Elmer) plate reader. […]
Results filed as inconclusive are left out. Activity calls are given as the source filed them. Calls follow the shape of the dose curve; as a rule, active = well fitted inhibition curve with a large enough effect; inconclusive = small, poorly fitted or top-dose-only effect; inactive = flat fitted curve, though single readings scatter.
Log the outcome using a class from 1 for active, 0 for inactive

| compound | assigned-category |
| --- | --- |
| O=C(O)c1cc2cc(Cc3cccnc3)ccc2o1 | 0 |
| Cc1c(F)c(N2CCNC(C)C2)cc2c1c(=O)c(C(=O)O)cn2C1CC1 (configuration not stated) | 0 |
| Nc1cc(Cl)c(NC2=NCCN2)c(Cl)c1 | 0 |
| CCCCCCCCCCCCCCNCCO | 0 |
| N[C@H](Cc1c[nH]c2ccccc12)C(=O)O | 0 |

Input line: // return assay outcome for "CC(=O)c1ccc2c(c1)N(CCCN1CCC(CCO)CC1)c1ccccc1S2"
Output line: 0

Input line: Another compound: "CCN1CCN(c2cc3c(cc2F)c(=O)c(C(=O)O)cn3C2CC2)CC1"
Output line: 0

Input line: Another compound: "Cc1cc(=O)n(-c2ccccc2)n1C"
Output line: 0

Input line: Another compound: "O=C(OCCOCCO)c1ccccc1Nc1cccc(C(F)(F)F)c1"
Output line: 0

---

Item-by-item account of activity, negative = inhibition
assay: Stat Signaling Pathway (AID 446); conditions: ME-180 SIE beta-lactamase reporter, IL-6 stimulated, 5 h; at 7.69 µM (top of the series);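 also: ME-180 cervical cancer cells given 40 pM IL-6 alongside compound; SIE-controlled beta-lactamase reporter measured as 460/530 nm FRET emission ratio; % is scaled to controls: 0 for no effect and ±100 for the full control effect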
Results filed as inconclusive are left out. Calls of active or inactive are those of the source. Calls follow the shape of the dose curve; as a rule, active = well fitted curve in either direction with a large enough effect (not every such curve was filed as active); inconclusive = small, poorly fitted or top-dose-only effect, or another doubt; inactive = flat fitted curve, though single readings scatter.

| molecular-string | activity, negative = inhibition |
| --- | --- |
| CN(C)CC/C=C1\c2ccccc2Sc2ccc(Cl)cc21 | -3.4% (inactive) |
| OC(CCN1CCCCC1)(c1ccccc1)c1ccccc1 | -4.56% (inactive) |
| Cc1cc(N)c2cc(NC(=O)Nc3ccc4nc(C)cc(N)c4c3)ccc2n1 | -4.38% (inactive) |

Now look at this entry.
Input line: Name the reported activity, negative = inhibition value associated with the compound "CNCCC=C1c2ccccc2CCc2ccccc21"
Output line: -5.09% (inactive)

---

assay: Drug repurposing screens with cells derived from glioblastoma tumor samples (AID 1345199); conditions: GBM patient neurospheres viability, ATP luminescence, 48 h; at 21.3 µM (top of the series); tumour line A; also: % is scaled to controls: 0 for no effect and ±100 for the full control effect; nearly all actives have a fitted effect of over 40% in size
Results filed as inconclusive are left out.
Criterion: activity, negative = cell killing strictly less than -20%. Met: yes. Not met: no.

| molecular-string | assigned-category |
| --- | --- |
| CC1(C)O[C@@H]2C[C@H]3[C@@H]4CCC5=CC(=O)CC[C@]5(C)[C@@]4(F)[C@@H](O)C[C@]3(C)[C@]2(C(=O)CCl)O1 | no |
| CCOC(=O)n1ccn(C)c1=S | no |
| CCn1cc(C(=O)O)c(=O)c2cnc(N3CCCC3)nc21 | yes |
| CC[C@@H](CO)NCCN[C@@H](CC)CO | yes |

As a next step, examine the molecule that follows.
Input line: Quick check: does "Cc1ccnc(NS(=O)(=O)c2ccc(N)cc2)n1" have activity, negative = cell killing under -20%?
Output line: no

---

system: CP335; experiment: qHTS profiling for inhibitors of Plasmodium falciparum proliferation (AID 504749); also: nearly all actives have a fitted effect of over 60% in size; conditions: P. falciparum in erythrocytes, SYBR Green DNA, 72 h; series mostly up to 28.7 µM
Records with an inconclusive call do not appear. The source made the active and inactive calls. Calls follow the shape of the dose curve; as a rule, active = well fitted inhibition curve with a large enough effect; inconclusive = small, poorly fitted or top-dose-only effect; inactive = flat fitted curve, though single readings scatter.
Log the outcome using a class from 1 = active, 0 = inactive

Reference set, count: 10
| compound | assigned-category |
| --- | --- |
| COc1cc2c(cc1OC)C(=O)C(CC1CCN(Cc3ccccc3)CC1)C2 (stereo unspecified) | 0 |
| N[C@H](CO)C(=O)O | 0 |
| COc1cc(OC)cc(OC)c1 | 0 |
| COc1ccc(/C=C/C(=O)c2ccc(OC)cc2OC)cc1 | 1 |
| CCN(CC)C(=O)/C(C#N)=C/c1cc(O)c(O)c([N+](=O)[O-])c1 | 0 |
| CCCCC1=NC2(CCCC2)C(=O)N1Cc1ccc(-c2ccccc2-c2nn[nH]n2)cc1 | 0 |
| Cc1c(C(C)C)c(=O)n(-c2ccccc2)n1C | 0 |
| NC(=NCCCCCCN=C(N)/N=C(\N)Nc1ccc(Cl)cc1)/N=C(\N)Nc1ccc(Cl)cc1 | 1 |
| O=C(CCN1CCC(c2ccccc2)C1)c1ccc2c(c1)OCCO2 (stereo unspecified) | 0 |
| C[C@@H]1C[C@H]2[C@@H]3CCC4=CC(=O)C=C[C@]4(C)[C@@]3(F)[C@@H](O)C[C@]2(C)[C@H]1C(=O)CO | 0 |

As a next step, examine the compound that follows.
Input line: // return assay outcome for "Cc1c(C)n(Cc2ccccc2)c2ccc(C(=O)OCCN(C)C)cc12"
Output line: 0

---

biological target: Thioredoxin reductase 1, cytoplasmic (Rattus norvegicus) (UniProt O89049); test: qHTS Assay for Inhibitors of Mammalian Selenoprotein Thioredoxin Reductase 1 (TrxR1) (AID 488773); conditions: purified TrxR1 enzyme activity; series mostly up to 57.1 µM;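 also: drop in NADPH fluorescence over an 8 min run after selenite addition; % is scaled to controls: 0 for no effect and ±100 for the full control effect; nearly all actives have a fitted effect of over 40% in size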
Sequence (O89049 whole entry, looked up): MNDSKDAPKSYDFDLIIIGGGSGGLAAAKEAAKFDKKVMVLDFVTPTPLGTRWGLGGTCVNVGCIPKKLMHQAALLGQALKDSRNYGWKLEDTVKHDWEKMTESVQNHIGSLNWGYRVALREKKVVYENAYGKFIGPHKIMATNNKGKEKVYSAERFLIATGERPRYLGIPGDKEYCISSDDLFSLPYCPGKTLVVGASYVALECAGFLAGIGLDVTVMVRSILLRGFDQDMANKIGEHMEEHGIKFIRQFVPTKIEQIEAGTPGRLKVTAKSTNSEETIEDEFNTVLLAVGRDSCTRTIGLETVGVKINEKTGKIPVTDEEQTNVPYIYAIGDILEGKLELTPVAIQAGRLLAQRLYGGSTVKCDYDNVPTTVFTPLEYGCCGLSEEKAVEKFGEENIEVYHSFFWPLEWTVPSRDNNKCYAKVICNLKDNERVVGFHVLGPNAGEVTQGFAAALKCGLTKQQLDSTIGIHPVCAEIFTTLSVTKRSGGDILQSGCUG
Records with an inconclusive call do not appear. Active and inactive are the calls of the source. The call rests on the fitted dose curve; in most records, active means well fitted inhibition curve with a large enough effect; inconclusive means small, poorly fitted or top-dose-only effect; inactive means no such curve, though single readings can be large or run the other way.
measured-quantity: outcome

Study these solved cases before continuing.
| compound | measured-quantity | experimental-value |
| --- | --- | --- |
| CC[C@H](C)C(=O)O[C@H]1CCC=C2C=C[C@H](C)[C@H](CC[C@@H]3C[C@@H](O)CC(=O)O3)[C@H]21 | outcome | inactive |
| O=C1CCC(c2ccc(-n3ccnc3)cc2)=NN1 | outcome | inactive |
| C[N+]1(CCCCC[N+]2(C)CCCC2)CCCC1 | outcome | inactive |
| N[C@H](CO)C(=O)O | outcome | inactive |
| CC(CCc1ccccc1)NCC(O)c1ccc(O)c(C(N)=O)c1 (stereo unspecified) | outcome | inactive |

Input line: Form: Entry = "Nc1cc(Cl)c(NC2=NCCN2)c(Cl)c1" | System = Thioredoxin reductase 1, cytoplasmic (Rattus norvegicus) (UniProt O89049) | outcome = ____
Output line: inactive

---

system: HB3; experiment: qHTS profiling for inhibitors of Plasmodium falciparum proliferation (AID 504749); also: nearly all actives have a fitted effect of over 60% in size; conditions: P. falciparum in erythrocytes, SYBR Green DNA, 72 h; series mostly up to 28.7 µM
Inconclusive results are not listed. Active and inactive are the calls of the source. The call rests on the fitted dose curve; in most records, active means well fitted inhibition curve with a large enough effect; inconclusive means small, poorly fitted or top-dose-only effect; inactive means flat fitted curve, though single readings scatter.
Log the outcome using a class from active, inactive

Reference set, count: 8
| compound | assigned-category |
| --- | --- |
| CCOc1ccc2nc3cc(N)ccc3c(N)c2c1 | active |
| CCCCCCC[N+](CC)(CC)CCCCc1ccc(Cl)cc1 | active |
| O=C(O)CCCCC(=O)O | inactive |
| CCn1cc(C(=O)O)c(=O)c2cnc(N3CCCC3)nc21 | inactive |
| N[C@H](CO)C(=O)O | inactive |
| CCC(=O)c1c(O)cc(O)cc1O | inactive |
| C[C@@H]1C(=O)NC2=Nc3cccc(Cl)c3CN21 | inactive |
| c1ccc(CNCCNCc2ccccc2)cc1 | inactive |

Input line: // return assay outcome for "CC(C)(CO)[C@@H](O)C(=O)NCCCO"
Output line: inactive

Input line: Another compound: CCN(CC)CCOC(=O)C(c1ccccc1)C1CCCCC1 (stereo not drawn)
Output line: inactive

Input line: Another compound: "CC(C)(C(=O)c1cccnc1)c1cccnc1"
Output line: inactive

Input line: Another compound: "CC(C)(Oc1ccc(Cl)cc1)C(=O)O"
Output line: inactive

Input line: Another compound: "CCN1CCCC1=O"
Output line: inactive

---

Item-by-item account of activity change, negative = inhibition
assay: AP1 Signaling Pathway (AID 357); conditions: ME-180 (cervical carcinoma) AP-1-bla reporter, EGF-induced, beta-lactamase ratio, 5 h; at 17.2 µM (top of the series);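 also: ME-180 reporter cells stimulated with EGF at its EC50 level; % is scaled to controls: 0 for no effect and ±100 for the full control effect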
Inconclusive results are not listed. Activity calls are given as the source filed them. Calls follow the shape of the dose curve; as a rule, active = well fitted curve in either direction with a large enough effect (not every such curve was filed as active); inconclusive = small, poorly fitted or top-dose-only effect, or another doubt; inactive = flat fitted curve, though single readings scatter.

Study these solved cases before continuing.
| molecular-string | activity change, negative = inhibition |
| --- | --- |
| C[C@@H](CN(C)C)CN1c2ccccc2Sc2ccccc21 | 82.2% [activator] (active) |
| Cc1c(N(C)CS(=O)(=O)O)c(=O)n(-c2ccccc2)n1C | 6.43% (inactive) |
| CC(O)(P(=O)(O)O)P(=O)(O)O | -1.23% (inactive) |
| CC(=O)O[C@]1(C(C)=O)CC[C@H]2[C@@H]3C[C@H](C)C4=CC(=O)CC[C@]4(C)[C@H]3CC[C@@]21C | 15.9% (inactive) |
| C1CCc2nnnn2CC1 | 8.91% (inactive) |

Input line: Name the reported activity change, negative = inhibition value associated with the compound "O=C1c2ccccc2C(=O)C1c1ccccc1"
Output line: -0.252% (inactive)

Where do the numbers come from? From PubChem BioAssay (NCATS).
